These entries and their values trace back to the NIST ThermoML archive (doi:10.1021/je900550v).

settings: 298.9 K; 101.33 kPa; Liquid; Pulse-echo method
ATTRIBUTE MEASURED: speed of sound (m/s)

{"COMPOUND": "CCCC(=O)[O-].C[NH2+]CCO [N-methyl-2-hydroxyethylammonium butanoate]", "speed of sound, m/s": 1612.2}
{"COMPOUND": "CC(C)C(=O)[O-].C[NH2+]CCO [2-hydroxy-N-methylethanaminium isobutyrate]", "speed of sound, m/s": 1609.2}
{"COMPOUND": "CCCCC(=O)[O-].C[NH2+]CCO [2-hydroxy-N-methylethanaminium pentanoate]", "speed of sound, m/s": 1546.4}
{"COMPOUND": "C[NH2+]CCO.O=C[O-] [2-hydroxy-N-methylethanaminium formate]", "speed of sound, m/s": 1813.8}
{"COMPOUND": "CCC(=O)[O-].C[NH2+]CCO [2-hydroxy-N-methylethanaminium propionate]", "speed of sound, m/s": 1687.8}
